Values compiled from patent US20240325359A1.

- test-target: human ACAT1 (Homo sapiens, UniProt P35610)
- Sequence (P35610 whole entry): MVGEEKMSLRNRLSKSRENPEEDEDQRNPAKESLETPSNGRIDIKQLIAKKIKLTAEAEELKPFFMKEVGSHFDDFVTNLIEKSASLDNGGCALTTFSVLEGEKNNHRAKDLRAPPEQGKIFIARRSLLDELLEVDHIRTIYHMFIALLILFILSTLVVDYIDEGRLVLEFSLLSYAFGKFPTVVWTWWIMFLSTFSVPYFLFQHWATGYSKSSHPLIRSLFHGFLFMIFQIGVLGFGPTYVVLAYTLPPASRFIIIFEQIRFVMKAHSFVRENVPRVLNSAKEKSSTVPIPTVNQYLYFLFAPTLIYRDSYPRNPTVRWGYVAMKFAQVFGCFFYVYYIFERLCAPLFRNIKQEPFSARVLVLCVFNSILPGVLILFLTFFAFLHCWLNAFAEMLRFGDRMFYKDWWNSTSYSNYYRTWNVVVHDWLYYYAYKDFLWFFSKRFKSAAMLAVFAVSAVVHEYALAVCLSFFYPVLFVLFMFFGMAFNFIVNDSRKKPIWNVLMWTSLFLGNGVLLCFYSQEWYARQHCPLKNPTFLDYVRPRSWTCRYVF
- run-description: Cholesteryl [3H]-oleate formation in CHO cells stably expressing human ACAT1
endpoint: pEC50
One number for each entry, as −log10 of the molar value.

IN: Which value of pEC50 has been reported for CCCCCCCCCCCCSC(C(=O)Nc1c(SC)cc(C)nc1SC)c1ccccc1 (stereo not shown) [F24] in the records?
OUT: 8.22

----------
Would you kindly list EC50 for each of these molecules?
- test-target: human ACAT2 (Homo sapiens, UniProt O75908)
- Sequence (O75908 whole entry): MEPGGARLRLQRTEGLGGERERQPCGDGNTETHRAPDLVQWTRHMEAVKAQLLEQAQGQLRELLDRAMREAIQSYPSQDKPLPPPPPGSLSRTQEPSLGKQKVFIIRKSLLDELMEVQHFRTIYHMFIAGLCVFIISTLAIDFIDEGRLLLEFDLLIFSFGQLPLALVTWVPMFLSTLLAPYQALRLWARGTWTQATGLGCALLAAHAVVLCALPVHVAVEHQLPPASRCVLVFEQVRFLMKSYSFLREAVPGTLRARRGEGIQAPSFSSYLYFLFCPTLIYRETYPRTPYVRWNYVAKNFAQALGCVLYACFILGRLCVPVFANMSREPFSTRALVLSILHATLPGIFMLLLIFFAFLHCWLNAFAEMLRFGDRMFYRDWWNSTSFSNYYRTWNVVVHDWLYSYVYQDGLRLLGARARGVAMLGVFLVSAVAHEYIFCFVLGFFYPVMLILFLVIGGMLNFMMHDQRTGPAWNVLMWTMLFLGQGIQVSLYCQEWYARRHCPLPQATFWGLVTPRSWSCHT
- run-description: Cholesteryl [3H]-oleate formation in CHO cells stably expressing human ACAT2

Below are some molecules; for each one, tell me its EC50.
1. CCCCCCCCCCCCSC(C(=O)Nc1c(SC)cc(C)nc1SC)c1ccccc1 (centres unmarked) [F24]
2. CCCCCCCCCCCCS[C@H](C(=O)Nc1cc(C)c(O)c(C)c1C)c1ccccc1 [F12511, reference compound]

OUT:
1. 11 nM
2. 55 nM
